Please respond with reported viability, T/C for every item in the list.
- Test system: 287954-098-R-J1 tumor spheroid viability;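 further: luminescent signal taken as surrogate of viable cell content; spheroids exposed to compound for 7 days before viability readout; 100% = DMSO vehicle control viability and lower means growth inhibition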
- ASSAY PROTOCOL: Anticancer human tumor 287954-098-R-J1 patient-derived Ewing sarcoma cell line growth inhibition
- CONDITION: second compound 0.3 µM; first compound 0.949 µM; active compounds read low; spheroids with HUVEC and MSC
Answers are plain numbers, in %.

Cn1ncnc1[C@H]1c2n[nH]c(=O)c3cc(F)cc(c23)N[C@@H]1c1ccc(F)cc1 + CC[C@@]1(O)C(=O)OCc2c1cc1n(c2=O)Cc2cc3c(CN(C)C)c(O)ccc3nc2-1; 1.85
O=C(c1cc(Cc2n[nH]c(=O)c3ccccc23)ccc1F)N1CCN(C(=O)C2CC2)CC1 + CC[C@@]1(O)C(=O)OCc2c1cc1n(c2=O)Cc2cc3c(CN(C)C)c(O)ccc3nc2-1; 1.84
CNCc1ccc(-c2cc(-c3nc(-c4ccc(S(=O)(=O)C(C)C)cc4)cnc3N)on2)cc1 + CC[C@@]1(O)C(=O)OCc2c1cc1n(c2=O)Cc2cc3c(CN(C)C)c(O)ccc3nc2-1; 0.24

Input line: Find viability, T/C (287954-098-R-J1 tumor spheroid viability) for the entry Cc1sc2c(c1C)C(c1ccc(Cl)cc1)=NC(CC(=O)Nc1ccc(O)cc1)c1nnc(C)n1-2 (centres undefined) + CC[C@@]1(O)C(=O)OCc2c1cc1n(c2=O)Cc2cc3c(CN(C)C)c(O)ccc3nc2-1
Output line: 1.2
